biological target: Alpha-2-macroglobulin (Homo sapiens, UniProt P01023)
Sequence (P01023 whole entry): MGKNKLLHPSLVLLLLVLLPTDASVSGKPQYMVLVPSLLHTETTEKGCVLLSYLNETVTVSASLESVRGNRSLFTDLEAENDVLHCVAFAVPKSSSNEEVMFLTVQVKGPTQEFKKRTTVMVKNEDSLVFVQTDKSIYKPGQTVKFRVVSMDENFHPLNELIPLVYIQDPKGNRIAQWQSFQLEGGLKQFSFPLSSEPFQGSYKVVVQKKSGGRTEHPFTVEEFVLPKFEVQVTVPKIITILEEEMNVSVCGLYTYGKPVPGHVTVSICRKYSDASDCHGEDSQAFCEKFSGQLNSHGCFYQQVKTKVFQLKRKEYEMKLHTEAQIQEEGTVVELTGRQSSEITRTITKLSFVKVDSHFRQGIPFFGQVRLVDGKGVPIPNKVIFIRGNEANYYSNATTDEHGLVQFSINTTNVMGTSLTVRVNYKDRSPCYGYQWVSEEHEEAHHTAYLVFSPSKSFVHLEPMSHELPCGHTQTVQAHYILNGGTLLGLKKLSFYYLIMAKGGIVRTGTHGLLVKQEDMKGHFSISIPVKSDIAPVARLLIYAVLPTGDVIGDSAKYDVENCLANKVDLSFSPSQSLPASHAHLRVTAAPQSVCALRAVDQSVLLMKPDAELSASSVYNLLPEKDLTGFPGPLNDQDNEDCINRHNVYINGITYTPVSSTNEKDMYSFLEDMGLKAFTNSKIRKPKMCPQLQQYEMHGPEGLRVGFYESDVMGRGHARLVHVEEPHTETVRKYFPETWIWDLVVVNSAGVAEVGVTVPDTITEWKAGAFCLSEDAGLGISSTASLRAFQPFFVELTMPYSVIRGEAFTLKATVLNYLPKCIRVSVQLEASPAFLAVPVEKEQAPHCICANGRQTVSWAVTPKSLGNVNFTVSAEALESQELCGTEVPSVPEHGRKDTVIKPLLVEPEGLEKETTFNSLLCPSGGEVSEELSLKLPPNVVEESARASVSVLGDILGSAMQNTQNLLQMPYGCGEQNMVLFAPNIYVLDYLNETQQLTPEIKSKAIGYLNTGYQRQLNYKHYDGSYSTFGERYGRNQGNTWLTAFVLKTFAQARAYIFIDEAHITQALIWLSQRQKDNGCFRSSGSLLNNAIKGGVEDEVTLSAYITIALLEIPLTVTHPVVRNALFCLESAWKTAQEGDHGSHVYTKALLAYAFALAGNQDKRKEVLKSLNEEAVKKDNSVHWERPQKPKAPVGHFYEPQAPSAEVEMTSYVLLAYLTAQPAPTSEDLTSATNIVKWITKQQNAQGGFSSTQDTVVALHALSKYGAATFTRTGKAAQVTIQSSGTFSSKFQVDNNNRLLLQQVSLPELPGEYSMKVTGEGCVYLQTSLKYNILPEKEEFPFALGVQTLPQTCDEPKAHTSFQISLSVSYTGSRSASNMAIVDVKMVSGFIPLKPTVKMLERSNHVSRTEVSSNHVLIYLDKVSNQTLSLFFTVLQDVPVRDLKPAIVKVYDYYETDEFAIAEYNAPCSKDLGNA
Measurement Kind: IC50
Please provide the amount together with its unit, number first.

# IC50 measured on Alpha-2-macroglobulin (Homo sapiens, UniProt P01023) for item CC(C)CC[C@]1(O)[C@@]2(O)C(=O)O[C@]13C(=Cc1cccc(O)c1[C@@H]3O)C(=O)[C@@H]2C = 257 µM

----------
assay: Inhibition of glutathione S-transferase (unknown origin); set-up: species or system Homo sapiens
Measurement Kind: pIC50
Scale: pIC50 equals -log10([C]), with [C] in mol/L.

pIC50 recorded for this compound, CC(C)CC[C@@]1(O)c2cc3c(O)cccc3cc2C(=O)[C@H](C)[C@]1(O)C(=O)O , is 4.57
